The values you see were collected from patent US9447038B2.

- targetOfAssay: human CXCR3-A receptor (Homo sapiens (Human))
- Sequence (P49682 whole entry): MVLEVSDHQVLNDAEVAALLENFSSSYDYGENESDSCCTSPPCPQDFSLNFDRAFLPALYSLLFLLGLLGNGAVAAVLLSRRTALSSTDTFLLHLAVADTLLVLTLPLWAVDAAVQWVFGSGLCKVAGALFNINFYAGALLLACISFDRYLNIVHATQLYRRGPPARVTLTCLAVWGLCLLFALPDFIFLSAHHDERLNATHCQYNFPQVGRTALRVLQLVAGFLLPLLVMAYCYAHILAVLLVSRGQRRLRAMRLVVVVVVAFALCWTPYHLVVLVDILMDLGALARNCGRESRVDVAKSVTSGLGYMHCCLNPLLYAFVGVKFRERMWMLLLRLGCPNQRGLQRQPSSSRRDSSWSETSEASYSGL
- procedureDetails: 125I-CXCL10 competition radioligand binding assay
- studyConditions: displacement of 125I-CXCL10 from membranes of CHO cells expressing human recombinant CXCR3-A
pIC50: −log10 of the molar value.
readoutName: pIC50

Example cases with answers are listed next.
compound="CCCCN(Cc1ccc(CCCN2C(=O)CCC2=O)c(OC)c1)C(CC(=O)O)c1ccc2c(c1)CCO2 (stereo not shown) [Example 140]" readoutname=pIC50 resultvalue=7.29
compound="COc1cc(CN(CC2CCCCC2)C(CC(=O)O)c2ccc(C(F)(F)F)cc2)ccc1OCCN1C(=O)CCC1=O (stereo not shown) [Example 181]" readoutname=pIC50 resultvalue=6.29

1. COc1cc(CN(CC(C)C)[C@@H](C(=O)O)c2ccc(Cl)c(Cl)c2)ccc1OCCN1C(=O)CCC1=O [Example 110]
2. CCCN(Cc1ccc(OCCN2C(=O)CCC2=O)c(F)c1)C(c1ccc(Cl)cc1)C(C)C(=O)O (stereo not shown) [Example 195]
-- ask Select one. Lower pIC50: 1 or 2 Choose, then provide that item's label.
-- reply 1
(1: 6.10, 2: 6.47)

###

- targetOfAssay: human CXCR3-A receptor (Homo sapiens (Human))
- procedureDetails: 125I-CXCL10 competition radioligand binding assay;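 note: One-hour incubation of membranes with tracer, bound radioligand separated by glass fibre filtration, IC50 derived from four-parameter nonlinear fit of competition curves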
- studyConditions: displacement of 125I-CXCL10 from membranes of CHO cells expressing human recombinant CXCR3-A
pIC50: −log10 of the molar value. Structures can show the parent of a compound that is named as a salt.
readoutName: pIC50

molecule="COc1cc(CN(CC2CCCC2)C(CC(=O)O)c2ccc(Cl)c(Cl)c2)ccc1OCCN1C(=O)CCC1=O (stereo not drawn)" readoutname=pIC50 resultvalue=7.21
molecule=Cc1cc(CN(CC2CC2)[C@H](CC(=O)O)c2ccc(Cl)c(Cl)c2)ccc1OCCN1C(=O)CCC1=O readoutname=pIC50 resultvalue=7.07

1. CCCCN(Cc1ccc(OCCN2C(=O)CCC2=O)c(F)c1)C(CC(=O)O)c1ccc(Cl)c(Cl)c1 (stereo not drawn)
2. Cc1cc(CN(CC2CCCC2)[C@@H](CC(=O)O)c2ccc(Cl)c(F)c2)ccc1OCCN1C(=O)CN(C)C1=O
3. Cc1cc(CN(CCC(F)(F)F)C(CC(=O)O)c2ccc(Cl)c(Cl)c2)ccc1OCCN1C(=O)CCC1=O (stereo not drawn)
-- ask Hey, quick one: sort these by pIC50, low to high? Record the ranking as a list of labels in the requested order.
-- reply 3, 1, 2

P. Cc1cc(CN(CC2CCCCC2)[C@H](CC(=O)O)c2ccc(Cl)c(F)c2)ccc1OCCN1C(=O)CN(C)C1=O
Q. CCCCN(Cc1ccc(OCCN2C(=O)CCC2=O)c(C)c1)C(CC(=O)O)c1ccc2c(c1)CCO2 (stereo not drawn)
-- ask When their pIC50 values are compared, which is larger, P or Q ? Choose, then provide that item's label.
-- reply Q
(Q: 7.42, P: 7.12)

a. COc1cc(CN(CC2CCCC2)C(CC(=O)O)c2ccc3c(c2)CCO3)ccc1CCCN1C(=O)CCC1=O (stereo not drawn)
b. COc1cc(CN(CC2CC2)C(CC(=O)O)c2ccc(Cl)c(Cl)c2)ccc1SCCN1C(=O)CCC1=O (stereo not drawn)
c. CCCCN(Cc1ccc(OCCN2C(=O)CCC2=O)c(OC)c1)C(CC(=O)O)c1ccc(Cl)cc1Cl (stereo not drawn)
d. CCCCN(Cc1ccc(OCCN2C(=O)CCC2=O)c(OC)c1)C1c2ccc(Cl)cc2CC1C(=O)O (stereo not drawn)
-- ask Hey, quick one: sort these by pIC50, low to high? Record the ranking as a list of labels in the requested order.
-- reply d, c, a, b

P. COc1cc(CN(CC2CCCC2)C(CC(=O)O)c2ccc(Cl)c(F)c2)ccc1SCCN1C(=O)CCC1=O (stereo not drawn)
Q. Cc1cc(CN(CC2CCCC2)[C@@H](CC(=O)O)c2ccc(Cl)c(Cl)c2)ccc1OCCN1C(=O)CN(C)C1=O [Example 200, hydrochloride]
-- ask Select one. Lower pIC50: P or Q Choose, then provide that item's label.
-- reply Q

P. Cc1cc(CN(CC(C)C)C(CC(=O)O)c2ccc3c(c2)CCO3)ccc1OCCn1c(=O)ccn(C)c1=O (stereo not drawn)
Q. CCCN(Cc1ccc(OCCN2C(=O)CCC2=O)c(F)c1)C(CC(=O)O)c1ccc(Cl)c(F)c1 (stereo not drawn)
-- ask Select one. Lower pIC50: P or Q Choose, then provide that item's label.
-- reply Q
